# Tested on: K4 kissing-loop RNA reporter;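 further: bound reporter read as fluorescence of individual clusters on recovered sequencing chips by microscopy, with normalized cluster intensities fitted with a binding model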
# Protocol notes: apparent KD of K4 kissing-loop reporter; higher = weaker reporter binding
# Condition label: Eterna round: R107; input ligand: arginine 13.2 mM
Property: apparent KD of K4 kissing-loop reporter

In the examples that follow, each entry is paired with its recorded apparent KD of K4 kissing-loop reporter.
Sequence: UGUCGAGUGAUGUUCGAUGUGGUGCAUUCAGAGGAUAUAGGGUGGGCUAGAAGGCUGAAAAGUGCUUCGAGUGAUGUUCGAAGAU [Exclusion FMN A GF8]
apparent KD of K4 kissing-loop reporter: 117 nM

Sequence: AUUAAGAUAUGAGUGAUGUUUAUGUCCGAAGGAGCGUGCGAAAGUACAGGUAGGUCGCGGAUGUGAGUGAUGUUUAUGUAAGCGU [KL-XArg-A15 #analogue]
apparent KD of K4 kissing-loop reporter: 33.8 nM

Sequence: GUGCGGUGGAGGUUACCGCUAUUCUGAGAAGGAGCGCAGAUGACUGCAGGUAGGUCGCUUAGAGCUUGCAGUGAUGUUGCAAGUU [Berienza]
apparent KD of K4 kissing-loop reporter: 174 nM

Sequence: CAGAACUUGUAUACAGGGUAUGUAAGAGAUACCAGUCAAAUUAAAGACCCUUGGCAGCUCAGGCGAGUGAUGUUCGCAGGCUAAC [Exclusion Theophylline A GF 18]
apparent KD of K4 kissing-loop reporter: 118 nM

Sequence: AGUGGACGUGUCUAGAGUGAUGUUCCGGAUACCAGACACGAAAGUGUCCCUUGGCAGCCGGAGUGAUGUUCUGGCGUUCACUAAA [Omei KL Theo A Exc B v6]
apparent KD of K4 kissing-loop reporter: 296 nM

Next sequence, apparent KD of K4 kissing-loop reporter to be filled in.
State apparent KD of K4 kissing-loop reporter on K4 kissing-loop RNA reporter. Entry: ACGCUAGCUACCGAAAGGUAGCUAGCGAGUGAGGAUAUGUGGAAACACAGAAGGCACAGCACAGUGAUGUUGUGCGGCGAAAGCC
249 nM

* * *

# Tested on: MS2 coat protein
# Protocol notes: apparent KD of MS2 coat protein; higher = weaker reporter binding
# Condition label: Eterna round: R107; input ligand: theophylline 2 mM
Below: a set of entries, each annotated with reported apparent KD of MS2 coat protein.
A bare number is not enough; add the unit after it.

In the examples that follow, each entry is paired with its recorded apparent KD of MS2 coat protein.
Sequence: GGAUAGAUAGGAGAUACCAGACACAUUAACAUGAGGAUCACCCAUGUGUCUGCACUAAGUGUCCCUUGGCAGCUCGGAGAUCUGA [Same State - Theophylline B]
Target or system: MS2 coat protein
Value reported: 30.6 nM

Sequence: CACAGUGCGAAAUUGAAUUCGCACGAUCCUCGAGGACCGGUACGGCCGCCACUCGCGCGGGUCGUACAUGAGGAUCACCCAUGUC [Zatiin]
Target or system: MS2 coat protein
Value reported: 477 nM

Sequence: UGUAUGUGAUCUGAUACCAGAGUUGAUAAUCUGAGGAUCACCCUGGUAAGGCGAAAGCCACUCCCUUGGCAGCAGAUCGCAUACU
Target or system: MS2 coat protein
Value reported: 175 nM

Sequence: AAUAAGAUGAGGAUCACCCAUCUAAAAGAUACCAGAGUGAUGAUCCUCCCUUGGCAGCUUAACGCUGAUUGAUUACAAUCAGCGA
Target or system: MS2 coat protein
Value reported: 121 nM

Sequence: GACGAUAUGAUACGUCAGCAAUCCUCGAAACGAGGACCGGUACGGCCGCCACUCGAGUGAUACACAUGAGGAUCACCCAUGUACC [Tryp A Ex t3]
Target or system: MS2 coat protein
Value reported: 49.4 nM

State apparent KD of MS2 coat protein on MS2 coat protein. Entry: GGGAUAUCCCGAAGGAGCGCGAGAUGCUGUGCUGCAUUCCUCACAUGAGGAUCACCCAUGUCGCAGGUAGGUCGCGGGAUAUCCC [#16 Exclusion - Arginine B]
553 nM

State apparent KD of MS2 coat protein on MS2 coat protein. Entry: UGGGAAGGAGGAAGGAGCGCCAUAAGGGUGACUGUCUGGGUACAUGAGGAUCACCCAUGUAGGCAGGUAGGUCGCCUCGCUCUCA [Bibienoned]
10.4 nM

Recorded values, source the supplement of paper PMC9170038.
